Items are presented alongside their recorded MIC.
Tested on: Staphylococcus aureus Stau_33591
Assay: MIC, broth microdilution (NCCLS)
Type: cell-based
Conditions: Table 10, Strain ID B (Table 8): Staphylococcus aureus Stau_33591; unit assumed

# Compound, Assay target, Result type, Observed
data = [
    ("CC[C@H]1OC(=O)[C@H](C)C(=O)[C@H](C)[C@@H](OC2O[C@H](C)C[C@H](N(C)C)[C@H]2O)[C@@](C)(OC)C[C@@H](C)C(=O)[C@H](C)[C@@H]2[C@@H]1OC(=O)N2CCCCn1cnc(-c2ccc(C)nc2)c1 (some centres unmarked)", "Staphylococcus aureus Stau_33591", "MIC", "> 50 µg/mL"),
]

Below: the item to evaluate.
Ask: Quick one: MIC of CC[C@H]1OC(=O)[C@H](C)C(=O)[C@H](C)[C@@H](OC2O[C@H](C)C[C@H](N(C)C)[C@H]2O)[C@@](C)(OC)C[C@@H](C)C(=O)[C@H](C)[C@H]2N(CCCCn3cnc(-c4ccc(F)nc4)c3)C(=O)O[C@]12CC (some centres unmarked) ?
Reply: > 50 µg/mL

---

Test: In vivo pharmacokinetic study in rats, plasma (IV and PO)
Design: species or system Sprague-Dawley rats
Conditions: rat, PO = 15 mg/kg
Result type: F, PO (%)
Number in %, nothing else.

# Compound, F, PO [%]
rows = [
    ("C=C[C@]12OC(=O)N(CCCCn3cnc(-c4ccc(C)nc4)c3)[C@@H]1[C@@H](C)C(=O)[C@H](C)C[C@](C)(OC)[C@H](OC1O[C@H](C)C[C@H](N(C)C)[C@H]1O)[C@@H](C)C(=O)[C@@H](C)C(=O)O[C@@H]2CC (stereo partly drawn)", 35),
]

Pending compound:
Ask: Quick one: F, PO for C=C[C@]12OC(=O)N(CCCCn3cnc(-c4cnccc4Cl)c3)[C@@H]1[C@@H](C)C(=O)[C@H](C)C[C@](C)(OC)[C@H](OC1O[C@H](C)C[C@H](N(C)C)[C@H]1O)[C@@H](C)C(=O)[C@@H](C)C(=O)O[C@@H]2CC (stereo partly drawn) ?
Reply: 21

---

Tested on: Haemophilus influenzae Hain_953460299-3
Assay: MIC, broth microdilution (NCCLS)
Type: cell-based
Conditions: Table 10, Strain ID K (Table 8): Haemophilus influenzae Hain_953460299-3; in µg/mL (unit assumed)
Quick list: MIC per entry.

# Compound, MIC
measured = [
    ("C=C[C@]12OC(=O)N(CCCCn3cnc(-c4ccc(F)nc4)c3)[C@@H]1[C@@H](C)C(=O)[C@H](C)C[C@](C)(OC)[C@H](OC1O[C@H](C)C[C@H](N(C)C)[C@H]1O)[C@@H](C)C(=O)[C@@H](C)C(=O)O[C@@H]2CC (stereo partly drawn)", 6.25),
    ("C=C[C@]12OC(=O)N(CCCCn3cnc(-c4ccc(C)nc4)c3)[C@@H]1[C@@H](C)C(=O)[C@H](C)C[C@](C)(OC)[C@H](OC1O[C@H](C)C[C@H](N(C)C)[C@H]1O)[C@@H](C)C(=O)[C@@H](C)C(=O)O[C@@H]2CC (stereo partly drawn)", 6.25),
    ("C=C[C@]12OC(=O)N(CCCCn3cnc(-c4ccc(OC)nc4)c3C)[C@@H]1[C@@H](C)C(=O)[C@H](C)C[C@](C)(OC)[C@H](OC1O[C@H](C)C[C@H](N(C)C)[C@H]1O)[C@@H](C)C(=O)[C@@H](C)C(=O)O[C@@H]2CC (stereo partly drawn)", 12.5),
    ("CC[C@H]1OC(=O)[C@H](C)C(=O)[C@H](C)[C@@H](OC2O[C@H](C)C[C@H](N(C)C)[C@H]2O)[C@@](C)(OC)C[C@@H](C)C(=O)[C@H](C)[C@H]2N(CCCCn3cnc(-c4ccc(OC)nc4)c3)C(=O)O[C@]12CC (stereo partly drawn)", 12.5),
    ("C=C[C@]12OC(=O)N(CCCCn3cnc(-c4ccc(Cl)nc4)c3)[C@@H]1[C@@H](C)C(=O)[C@H](C)C[C@](C)(OC)[C@H](OC1O[C@H](C)C[C@H](N(C)C)[C@H]1O)[C@@H](C)C(=O)[C@@H](C)C(=O)O[C@@H]2CC (stereo partly drawn)", 6.25),
    ("C=C[C@]12OC(=O)N(CCCCn3cnc(-c4ccc(OCC)nc4)c3)[C@@H]1[C@@H](C)C(=O)[C@H](C)C[C@](C)(OC)[C@H](OC1O[C@H](C)C[C@H](N(C)C)[C@H]1O)[C@@H](C)C(=O)[C@@H](C)C(=O)O[C@@H]2CC (stereo partly drawn)", 12.5),
    ("C=C[C@]12OC(=O)N(CCCCn3cnc(-c4ccc(N(C)C)nc4)c3)[C@@H]1[C@@H](C)C(=O)[C@H](C)C[C@](C)(OC)[C@H](OC1O[C@H](C)C[C@H](N(C)C)[C@H]1O)[C@@H](C)C(=O)[C@@H](C)C(=O)O[C@@H]2CC (stereo partly drawn)", 12.5),
    ("C=C[C@]12OC(=O)N(CCCCn3cnc(-c4ccc(OC)nc4)c3)[C@@H]1[C@@H](C)C(=O)[C@H](C)C[C@](C)(OC)[C@H](OC1O[C@H](C)C[C@H](N(C)C)[C@H]1O)[C@@H](C)C(=O)[C@@H](C)C(=O)O[C@@H]2CC (stereo partly drawn)", 6.25),
    ("CC[C@H]1OC(=O)[C@H](C)C(=O)[C@H](C)[C@@H](OC2O[C@H](C)C[C@H](N(C)C)[C@H]2O)[C@@](C)(OC)C[C@@H](C)C(=O)[C@H](C)[C@@H]2[C@@H]1OC(=O)N2CCCCn1cnc(-c2ccc(C)nc2)c1 (stereo partly drawn)", 6.25),
    ("C=C[C@]12OC(=O)N(CCCCn3cc(-c4ccc(OC)nc4)nc3C)[C@@H]1[C@@H](C)C(=O)[C@H](C)C[C@](C)(OC)[C@H](OC1O[C@H](C)C[C@H](N(C)C)[C@H]1O)[C@@H](C)C(=O)[C@@H](C)C(=O)O[C@@H]2CC (stereo partly drawn)", 12.5),
]

Ask: Could you share which MIC value was measured for CC[C@H]1OC(=O)[C@H](C)C(=O)[C@H](C)[C@@H](O[C@@H]2O[C@H](C)C[C@H](N(C)C)[C@H]2O)[C@](C)(OC)C[C@@H](C)C(=O)[C@H](C)[C@H]2N(CCCCn3cnc(-c4cccnc4)c3)C(=O)O[C@]12C [Telithromycin, telithromycin, reference compound] ?
Reply: 3.13-6.25

Ask: Let us now turn to CC[C@H]1OC(=O)[C@H](C)C(=O)[C@H](C)[C@@H](OC2O[C@H](C)C[C@H](N(C)C)[C@H]2O)[C@@](C)(OC)C[C@@H](C)C(=O)[C@H](C)[C@H]2N(CCCCn3cnc(-c4ccc(F)nc4)c3)C(=O)O[C@]12CC (stereo partly drawn)
Reply: 3.13

Ask: Next record, please: CC[C@H]1OC(=O)[C@H](C)C(=O)[C@H](C)[C@@H](OC2O[C@H](C)C[C@H](N(C)C)[C@H]2O)[C@@](C)(OC)C[C@@H](C)C(=O)[C@H](C)[C@H]2N(CCCCn3cnc(-c4ccc(C)nc4)c3)C(=O)O[C@]12CC (stereo partly drawn)
Reply: 6.25

Ask: Another compound to check: CC[C@H]1OC(=O)[C@@](C)(F)C(=O)[C@H](C)[C@@H](OC2O[C@H](C)C[C@H](N(C)C)[C@H]2O)[C@@](C)(OC)C[C@@H](C)C(=O)[C@H](C)[C@H]2N(CCCCn3cnc(-c4ccc(C)nc4)c3)C(=O)O[C@]12CC (stereo partly drawn)
Reply: 6.25

Ask: Another compound to check: CC[C@H]1OC(=O)[C@H](C)C(=O)[C@H](C)[C@@H](OC2O[C@H](C)C[C@H](N(C)C)[C@H]2O)[C@@](C)(OC)C[C@@H](C)C(=O)[C@H](C)[C@H]2N(CCCCn3cnc(-c4ccc(Cl)nc4)c3)C(=O)O[C@]12CC (stereo partly drawn)
Reply: 6.25
